System: UACC-257
Experiment: NCI tumour cell line growth inhibition, 48 h
Activity calls are given as the source filed them. No stated cut-off is given here; in the data, active = GI50 up to about 1.1 µM and inactive = higher. Non-standard residues stand in square brackets, D forms with d. Residues, ends and D or L forms follow the SMILES beside them.
PARAMETER: GI50

>  <MOLECULE>
CC(=O)Oc1ccc(N2C(=O)C3c4[nH]c5ccccc5c4C4CCC(C(C)(C)C)CC4C3C2=O)cc1 (centres undefined)

>  <OBSERVED VALUE>
11.1 µM (inactive)

$$$$
>  <MOLECULE>
Cc1ccsc1/C=N/Nc1nncc2ccccc12

>  <OBSERVED VALUE>
> 100 µM (inactive)

$$$$
>  <MOLECULE>
CN(C)CC1CCCCCC(Br)C1=O (centres undefined)

>  <OBSERVED VALUE>
9.93 µM (inactive)

$$$$
>  <MOLECULE>
Cc1ccc2nc(SCC(=O)N/N=C3\C(=O)Nc4ccccc43)n(-c3ccccc3)c(=O)c2c1

>  <OBSERVED VALUE>
24 µM (inactive)

$$$$
>  <MOLECULE>
COc1ccc2c(-c3csc(-c4c[nH]c5ccc(Br)cc45)n3)c[nH]c2c1

>  <OBSERVED VALUE>
88.9 µM (inactive)

$$$$
>  <MOLECULE>
C(#CP(c1ccccc1)c1ccccc1)P(C#CP(c1ccccc1)c1ccccc1)c1ccccc1

>  <OBSERVED VALUE>
> 100 µM (inactive)

$$$$
>  <MOLECULE>
CCc1cc2c(c3c1CCCC3)CC1(Cc3ccc(C(=O)OC)cc3C1)C2 (centres undefined)

>  <OBSERVED VALUE>
53.1 µM (inactive)

$$$$
>  <MOLECULE>
CCc1c(Cl)c(C)cc(O)c1Cl

>  <OBSERVED VALUE>
29.6 µM (inactive)

$$$$
>  <MOLECULE>
Cc1cc(C)nc(NC(=S)Nc2ccc(Cl)cc2)c1

>  <OBSERVED VALUE>
> 100 µM (inactive)

$$$$
>  <MOLECULE>
OC12COc3ccccc3C1Oc1ccccc1C2 (centres undefined)

>  <OBSERVED VALUE>
> 100 µM (inactive)

$$$$
>  <MOLECULE>
CC(=O)/C=C1/C(=O)C(CC(C)C)=C1CC(C)C

>  <OBSERVED VALUE>
> 100 µM (inactive)

$$$$
>  <MOLECULE>
COC(=O)C1=C(C(=O)OC)C2CCC1CC2=O (centres undefined)

>  <OBSERVED VALUE>
> 100 µM (inactive)

$$$$
>  <MOLECULE>
CN(C)c1nc(N(C)C)nc(N(C)CN(C)c2ccc(Cl)cc2)n1

>  <OBSERVED VALUE>
> 100 µM (inactive)

$$$$
>  <MOLECULE>
CC1(C)CC(=O)C(/C(=N/NC(=S)NN)C(=O)Nc2nc3ccc([N+](=O)[O-])cc3s2)C(=O)C1

>  <OBSERVED VALUE>
> 100 µM (inactive)

$$$$
>  <MOLECULE>
O=C(Nc1ccc(S(=O)(=O)/N=c2\ncccn2C(=O)C(C(F)(F)F)C(F)(F)F)cc1)C(C(F)(F)F)C(F)(F)F

>  <OBSERVED VALUE>
> 100 µM (inactive)

$$$$
>  <MOLECULE>
COc1cccc(/C=N/NC(=O)CN(C)C)c1O

>  <OBSERVED VALUE>
> 100 µM (inactive)

$$$$
>  <MOLECULE>
CCOc1ccc(C(=O)/C=C2/Nc3ccccc3N/C2=C/C(=O)c2ccc(OCC)cc2)cc1

>  <OBSERVED VALUE>
> 100 µM (inactive)

$$$$
>  <MOLECULE>
N/C(=N\c1cccc(Cl)c1)c1ccccc1N

>  <OBSERVED VALUE>
> 100 µM (inactive)

$$$$
>  <MOLECULE>
C=C1C/C(=C/C)C(=O)O[C@@H]2CCN3CC=C(COC(=O)[C@]1(C)O)[C@H]23 [SENECIPHYLLINE]

>  <OBSERVED VALUE>
> 100 µM (inactive)

$$$$
>  <MOLECULE>
CC(C)C[C@H](NC(=O)[C@H](CC(C)C)NC(=O)[C@@H](Cc1c[nH]c2ccccc12)NC(=O)[C@H](Cc1ccccc1)NC(=O)[C@@H](Cc1c[nH]c2ccccc12)NC(=O)[C@H](CCC(N)=O)NC(=O)[C@H](CCC(N)=O)NC(=O)[C@H]1CCCN1C(=O)[C@@H](N)CCCCN)C(N)=O (H-K[dP]QQ[dW]F[dW]LL-NH2)

>  <OBSERVED VALUE>
> 100 µM (inactive)

$$$$
>  <MOLECULE>
COC(=O)C1C(=O)N(C)C(=O)N2CCCC12 (centres undefined)

>  <OBSERVED VALUE>
> 100 µM (inactive)

$$$$
>  <MOLECULE>
COc1cc([C@@H]2c3cc4c(cc3[C@@H](NC(=O)c3ccc(C(C)=O)cc3)C3COC(=O)[C@@H]32)OCO4)cc(OC)c1O (some centres undefined)

>  <OBSERVED VALUE>
3.88 µM (inactive)

$$$$
>  <MOLECULE>
C[C@H]1CC[P+](C)(c2ccccc2)C1 (some centres undefined)

>  <OBSERVED VALUE>
> 100 µM (inactive)

$$$$
>  <MOLECULE>
Cc1c([C@H](C)[C@@H]2NC[C@@H](C)C[C@H]2O)ccc2c1C[C@H]1[C@H]2CC=C2C[C@@H](O)CC[C@@]21C [VERATRAMINE]

>  <OBSERVED VALUE>
13.2 µM (inactive)

$$$$
>  <MOLECULE>
O=C1OC(=O)C2CCCC3CCCC1C32 (centres undefined)

>  <OBSERVED VALUE>
> 100 µM (inactive)

$$$$
>  <MOLECULE>
CNC(=O)OC(COC)CN1CCN(c2ccccc2C)CC1 (centres undefined)

>  <OBSERVED VALUE>
> 10 µM (inactive)

$$$$
>  <MOLECULE>
CC1(C)N=C(N)N=C(N)N1c1cccc(CSc2ccccc2)c1

>  <OBSERVED VALUE>
3.85 µM (inactive)

$$$$
>  <MOLECULE>
C=CCN1C(=O)CC(=O)N(NC2=NNC3(C(=O)N2)c2ccccc2-c2ccccc23)C1=S

>  <OBSERVED VALUE>
27.5 µM (inactive)

$$$$
>  <MOLECULE>
CC(C)Oc1c(O)c2c3c(oc(=O)n3C=CC2c2ccccc2)c1OC(C)C (centres undefined)

>  <OBSERVED VALUE>
25.1 µM (inactive)

$$$$
>  <MOLECULE>
CCN1C(NCCO)=NS(=O)(=O)c2ccccc21

>  <OBSERVED VALUE>
> 100 µM (inactive)

$$$$
>  <MOLECULE>
CCOC(=O)N1C2C=C(C)C(C3C(C)C(=O)N31)N(C(=O)c1ccccc1)O2 (centres undefined)

>  <OBSERVED VALUE>
> 100 µM (inactive)

$$$$
>  <MOLECULE>
CC(=O)c1cnc2oc3ccc(O)cc3c2c1-c1ccccc1

>  <OBSERVED VALUE>
65.2 µM (inactive)

$$$$
>  <MOLECULE>
COC1OC2COC(=O)c3cc(O)c(O)c(O)c3-c3c(cc(O)c(O)c3O)C(=O)OC2C(O)C1O (centres undefined)

>  <OBSERVED VALUE>
> 100 µM (inactive)

$$$$
>  <MOLECULE>
CCNC(C)Cc1ccccc1 (centres undefined)

>  <OBSERVED VALUE>
> 100 µM (inactive)

$$$$
>  <MOLECULE>
CC(=O)NCCC1CN(C(=O)/C=C\C#C[Si](C)(C)C)c2ccccc21 (centres undefined)

>  <OBSERVED VALUE>
2.55 µM (inactive)

$$$$
>  <MOLECULE>
COC(=O)C1=C(O)C(C(=O)OC)C2CC(=O)CC1C2(C)C (centres undefined)

>  <OBSERVED VALUE>
> 100 µM (inactive)

$$$$
>  <MOLECULE>
CC(=O)OCC1OC(On2ccccc2=S)C(OC(C)=O)C(OC(C)=O)C1OC(C)=O (centres undefined)

>  <OBSERVED VALUE>
> 100 µM (inactive)

$$$$
>  <MOLECULE>
CCOc1ccc(NC(=O)CC2SC(N)=NC2=O)cc1 (centres undefined)

>  <OBSERVED VALUE>
> 100 µM (inactive)

$$$$
>  <MOLECULE>
Brc1ccc2c(C3CN[C@@H](c4c[nH]c5cc(Br)ccc45)CN3)c[nH]c2c1 (some centres undefined)

>  <OBSERVED VALUE>
11.1 µM (inactive)

$$$$

----------
Below are log10 of GI50 values recorded for HCT-15.
PARAMETER: log10 of GI50 (log10 of the value in µM)

>  <COMPOUND>
C[C@H]1[C@H](C)CC[C@]2(C(=O)OC3OC(CO)C(O)C(O)C3O)CC[C@]3(C)C(=CC[C@@H]4[C@@]5(C)C[C@@H](O)[C@@H]6OC(=O)c7cc(O)c(O)c(O)c7-c7c(cc(O)c(O)c7O)C(=O)OC[C@]6(CO)[C@@H]5CC[C@]43C)[C@H]12 (some centres undefined)

>  <PARAMETER>
log10 of GI50

>  <OBSERVED VALUE>
1.45

$$$$
>  <COMPOUND>
CC1=C(c2ccccc2)NC(=S)C(C)C(c2ccccc2)=N1 (centres undefined)

>  <PARAMETER>
log10 of GI50

>  <OBSERVED VALUE>
1.41

$$$$
>  <COMPOUND>
CCCCCCCCC/C=C1/CC(CO)(COC(=O)CC(C(C)C)C(C)C)OC1=O (centres undefined)

>  <PARAMETER>
log10 of GI50

>  <OBSERVED VALUE>
1.16

$$$$
>  <COMPOUND>
C=C1C(=O)C23C(O)CC4C5(C)CCCC4(C(O)OC5)C2C(OC(C)=O)CC1C3O (centres undefined)

>  <PARAMETER>
log10 of GI50

>  <OBSERVED VALUE>
1.07

$$$$
>  <COMPOUND>
CN(Cc1cccc2ccccc12)Cc1cccc2ccccc12

>  <PARAMETER>
log10 of GI50

>  <OBSERVED VALUE>
1.35

$$$$
>  <COMPOUND>
CCn1cc(C(=O)O)c(=O)c2cc(F)c(N3CCN(CN4C(=O)/C(=N\NC(=O)c5ccncc5)c5cc(Cl)ccc54)CC3)cc21

>  <PARAMETER>
log10 of GI50

>  <OBSERVED VALUE>
1.49

$$$$
>  <COMPOUND>
C=C1C(=O)OC2C1C(OC(=O)/C(C)=C/C)CC(O)(CCl)C1C(O)C3OC3(C)C21O (centres undefined)

>  <PARAMETER>
log10 of GI50

>  <OBSERVED VALUE>
1.23

$$$$
>  <COMPOUND>
CCC1C(=O)OCc2c1cc1n(c2=O)C(CC)c2c-1nc1ccccc1c2Cl (centres undefined)

>  <PARAMETER>
log10 of GI50

>  <OBSERVED VALUE>
1.56

$$$$
>  <COMPOUND>
COc1ccc2c(c1)[n+]([O-])c(-c1c(Cl)cccc1Cl)c(N)[n+]2[O-]

>  <PARAMETER>
log10 of GI50

>  <OBSERVED VALUE>
1.50

$$$$
>  <COMPOUND>
CCOC(=O)/C=C(\C(=O)OCC)n1ccc(=O)n(CC(=O)OCC)c1=O

>  <PARAMETER>
log10 of GI50

>  <OBSERVED VALUE>
0.26

$$$$

// data source = ChEMBL document CHEMBL1201862
